Biological target: SMARCA2 (Homo sapiens)
Construct: endogenous in cells
Assay: SMARCA2 Cellular Degradation Assay (Western blot analysis on Jess platform)
Format: cell-based
Conditions: ratio DC50 SMARCA4 / DC50 SMARCA2
EXPERIMENTAL_ENDPOINT: Fold Selectivity SMARCA4/2

[
  {
    "COMPOUND": "O=C1CC[C@H](c2ccc(N3CCC(CN4CCN(C(=O)C5(c6ccccc6)CCN(c6cnnc(-c7ccccc7O)c6)CC5)CCC4C(F)(F)F)CC3)cc2)C(=O)N1 (some centres unmarked) [Example 53]",
    "ASSAY_VALUE": 1
  },
  {
    "COMPOUND": "CN(C(=O)C1(c2cnn(C)c2)CCN(c2cnnc(-c3ccccc3O)c2)CC1)C1CCN(CCC2CCN(c3ccc(C4CCC(=O)NC4=O)cc3)CC2)CC1 (racemic) [Example 94]",
    "ASSAY_VALUE": 4454
  },
  {
    "COMPOUND": "O=C1CCC(c2c(F)cc(N3CCC(CN4CCC5(CC4)CN(C(=O)C4(Oc6ccccc6)CCN(c6cnnc(-c7ccccc7O)c6)CC4)C5)CC3)cc2F)C(=O)N1 (racemic) [Example 136]",
    "ASSAY_VALUE": 8
  },
  {
    "COMPOUND": "O=C1CCC(c2ccc(N3CCC(CN4CC5(C4)CN(C(=O)C4(c6ccc(Cl)c(Cl)c6)CCN(c6cnnc(-c7ccccc7O)c6)CC4)C5)CC3)cc2)C(=O)N1 (racemic) [Example 32]",
    "ASSAY_VALUE": 139.55
  },
  {
    "COMPOUND": "O=C1CC[C@H](c2ccc(N3CCC4(CC3)CC(N[C@H]3CC[C@H](NC(=O)C5(c6ccccc6)CCN(c6cnnc(-c7ccccc7O)c6)CC5)CC3)CO4)cc2)C(=O)N1 (mixture of isomers) [Example 178]",
    "ASSAY_VALUE": 7
  }
]

A. CC1(CCN2CC3(C2)CN(C(=O)C2(c4ccccc4)CCN(c4cnnc(-c5ccccc5O)c4)CC2)C3)CCN(c2ccc(C3CCC(=O)NC3=O)cc2)CC1 (racemic) [Example 131]
B. CN(C(=O)C1(c2ccccc2)CCN(c2cnnc(-c3ccccc3O)c2)CC1)C1CCN(CC2CCN(c3cccc([C@@H]4CCC(=O)NC4=O)c3)CC2)CC1 (racemic) [Example 102]
C. O=C1CCC(c2ccc(N3CCC(F)(CCN4CC5(C4)CN(C(=O)C4(c6ccccc6)CCN(c6cnnc(-c7ccccc7O)c6)CC4)C5)CC3)cc2)C(=O)N1 (racemic) [Example 122]
stdin: # desc sort on Fold Selectivity SMARCA4/2 across 3 compounds I would appreciate it if you listed the labels in the requested order.
stdout: C, A, B

a. O=C1CC[C@H](c2ccc(OCC3CCN(CC4CCN(C(=O)C5(c6ccccc6)CCN(c6cnnc(-c7ccccc7O)c6)CC5)CC4)CC3)cc2)C(=O)N1 [Example 36]
b. O=C1CCC(c2ccc(OC3CCN(CC4CCN(C(=O)C5(c6ccccc6)CCN(c6cnnc(-c7ccccc7O)c6)CC5)CC4)CC3)cc2)C(=O)N1 (racemic) [Example 12]
c. O=C1CC[C@@H](c2ccc(N3CCN(CC4=NO[C@@H]5CN(C(=O)C6(c7ccccc7)CCN(c7cnnc(-c8ccccc8O)c7)CC6)C[C@H]45)CC3)cc2)C(=O)N1 (racemic) [Example 165]
stdin: Exam item: list the entries in increasing order of Fold Selectivity SMARCA4/2. I would appreciate it if you listed the labels in the requested order.
stdout: c, b, a
(c: 22, b: 69.67, a: 309.98)

###

Target: SMARCA2 (Homo sapiens, UniProt P51531)
Construct: endogenous in cells
Sequence (P51531 whole entry, species assumed): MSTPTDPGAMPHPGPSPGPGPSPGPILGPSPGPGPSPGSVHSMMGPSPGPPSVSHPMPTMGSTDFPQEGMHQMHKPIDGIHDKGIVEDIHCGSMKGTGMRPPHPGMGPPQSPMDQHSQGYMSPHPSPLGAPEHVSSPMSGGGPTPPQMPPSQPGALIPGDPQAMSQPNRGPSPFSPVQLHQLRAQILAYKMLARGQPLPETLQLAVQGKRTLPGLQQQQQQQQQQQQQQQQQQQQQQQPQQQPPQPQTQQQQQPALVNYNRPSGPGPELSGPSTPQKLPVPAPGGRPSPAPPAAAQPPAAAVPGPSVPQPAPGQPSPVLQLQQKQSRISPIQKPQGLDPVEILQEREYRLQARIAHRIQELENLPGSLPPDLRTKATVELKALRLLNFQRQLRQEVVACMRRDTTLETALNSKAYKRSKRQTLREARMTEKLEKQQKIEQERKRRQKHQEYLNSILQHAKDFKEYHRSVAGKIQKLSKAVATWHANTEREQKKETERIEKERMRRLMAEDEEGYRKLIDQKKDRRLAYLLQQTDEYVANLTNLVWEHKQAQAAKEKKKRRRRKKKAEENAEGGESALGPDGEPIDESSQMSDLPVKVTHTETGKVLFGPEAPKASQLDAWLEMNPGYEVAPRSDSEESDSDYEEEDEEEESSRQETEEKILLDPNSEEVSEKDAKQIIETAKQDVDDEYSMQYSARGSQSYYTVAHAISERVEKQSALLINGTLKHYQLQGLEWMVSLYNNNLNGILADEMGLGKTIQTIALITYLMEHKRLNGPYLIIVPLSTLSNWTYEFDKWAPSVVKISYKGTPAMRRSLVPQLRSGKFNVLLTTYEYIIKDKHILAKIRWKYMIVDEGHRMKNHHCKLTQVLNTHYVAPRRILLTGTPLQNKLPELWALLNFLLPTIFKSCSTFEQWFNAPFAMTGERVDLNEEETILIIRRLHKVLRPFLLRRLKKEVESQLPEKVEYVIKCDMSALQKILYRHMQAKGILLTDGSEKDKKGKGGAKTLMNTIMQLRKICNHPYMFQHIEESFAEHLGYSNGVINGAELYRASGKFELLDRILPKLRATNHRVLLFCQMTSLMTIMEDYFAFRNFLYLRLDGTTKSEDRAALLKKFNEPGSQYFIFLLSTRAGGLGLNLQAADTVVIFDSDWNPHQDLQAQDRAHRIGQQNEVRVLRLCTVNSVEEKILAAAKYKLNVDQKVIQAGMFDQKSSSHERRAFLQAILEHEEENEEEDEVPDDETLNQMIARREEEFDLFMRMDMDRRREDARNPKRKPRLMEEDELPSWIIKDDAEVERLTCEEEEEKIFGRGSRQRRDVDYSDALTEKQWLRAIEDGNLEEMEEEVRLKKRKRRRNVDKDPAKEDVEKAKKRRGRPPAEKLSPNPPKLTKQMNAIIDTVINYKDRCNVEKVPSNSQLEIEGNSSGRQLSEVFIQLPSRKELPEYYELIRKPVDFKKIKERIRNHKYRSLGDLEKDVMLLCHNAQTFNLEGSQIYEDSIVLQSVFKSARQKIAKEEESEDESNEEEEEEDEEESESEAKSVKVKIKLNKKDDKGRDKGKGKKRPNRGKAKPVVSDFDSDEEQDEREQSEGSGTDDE
Experiment: SMARCA2 Cellular Degradation Assay (Western blot analysis on Jess platform)
Format: cell-based
Details: cellular degradation
Experimental: SMARCA2 Cellular Degradation Assay Western Blot Analysis for SMARCA2 Degradation […] Following normalization, the percentage of SMARCA2 remaining per sample relative to the vehicle control was calculated as follows: […]
EXPERIMENTAL_ENDPOINT: Dmax (%)

[
  {
    "MOLECULE": "CC(C)c1cc(C2(C(=O)N3CC4(CN(CC5CCN(c6ccc(C7CCC(=O)NC7=O)cc6)CC5)C4)C3)CCN(c3cnnc(-c4ccccc4O)c3)CC2)no1 (racemic)",
    "ASSAYED_TARGET": "SMARCA2 (Homo sapiens, UniProt P51531)",
    "ASSAY_VALUE": 80.8
  }
]

A. O=C1CCC(c2ccc(N3CCC(CN4CC5(C4)CN(C(=O)C4(c6ccccc6)CCN(c6cnnc(-c7ccccc7O)c6)CC4)C5)CC3)c(F)c2F)C(=O)N1 (racemic)
B. O=C1CCC(c2ccc(OCC3CCN(C(=O)C4CCN(C(=O)C5(c6ccccc6)CCN(c6cnnc(-c7ccccc7O)c6)CC5)CC4)CC3)cc2)C(=O)N1 (racemic)
stdin: Which of the two gives a bigger number for Dmax: A or B ? Could you answer with the label of the item you picked?
stdout: A
(A: 89%, B: 22.2%)

###

Molecular target: SMARCA4 (Homo sapiens)
Construct: endogenous in cells
Sequence (P51532 whole entry, species assumed): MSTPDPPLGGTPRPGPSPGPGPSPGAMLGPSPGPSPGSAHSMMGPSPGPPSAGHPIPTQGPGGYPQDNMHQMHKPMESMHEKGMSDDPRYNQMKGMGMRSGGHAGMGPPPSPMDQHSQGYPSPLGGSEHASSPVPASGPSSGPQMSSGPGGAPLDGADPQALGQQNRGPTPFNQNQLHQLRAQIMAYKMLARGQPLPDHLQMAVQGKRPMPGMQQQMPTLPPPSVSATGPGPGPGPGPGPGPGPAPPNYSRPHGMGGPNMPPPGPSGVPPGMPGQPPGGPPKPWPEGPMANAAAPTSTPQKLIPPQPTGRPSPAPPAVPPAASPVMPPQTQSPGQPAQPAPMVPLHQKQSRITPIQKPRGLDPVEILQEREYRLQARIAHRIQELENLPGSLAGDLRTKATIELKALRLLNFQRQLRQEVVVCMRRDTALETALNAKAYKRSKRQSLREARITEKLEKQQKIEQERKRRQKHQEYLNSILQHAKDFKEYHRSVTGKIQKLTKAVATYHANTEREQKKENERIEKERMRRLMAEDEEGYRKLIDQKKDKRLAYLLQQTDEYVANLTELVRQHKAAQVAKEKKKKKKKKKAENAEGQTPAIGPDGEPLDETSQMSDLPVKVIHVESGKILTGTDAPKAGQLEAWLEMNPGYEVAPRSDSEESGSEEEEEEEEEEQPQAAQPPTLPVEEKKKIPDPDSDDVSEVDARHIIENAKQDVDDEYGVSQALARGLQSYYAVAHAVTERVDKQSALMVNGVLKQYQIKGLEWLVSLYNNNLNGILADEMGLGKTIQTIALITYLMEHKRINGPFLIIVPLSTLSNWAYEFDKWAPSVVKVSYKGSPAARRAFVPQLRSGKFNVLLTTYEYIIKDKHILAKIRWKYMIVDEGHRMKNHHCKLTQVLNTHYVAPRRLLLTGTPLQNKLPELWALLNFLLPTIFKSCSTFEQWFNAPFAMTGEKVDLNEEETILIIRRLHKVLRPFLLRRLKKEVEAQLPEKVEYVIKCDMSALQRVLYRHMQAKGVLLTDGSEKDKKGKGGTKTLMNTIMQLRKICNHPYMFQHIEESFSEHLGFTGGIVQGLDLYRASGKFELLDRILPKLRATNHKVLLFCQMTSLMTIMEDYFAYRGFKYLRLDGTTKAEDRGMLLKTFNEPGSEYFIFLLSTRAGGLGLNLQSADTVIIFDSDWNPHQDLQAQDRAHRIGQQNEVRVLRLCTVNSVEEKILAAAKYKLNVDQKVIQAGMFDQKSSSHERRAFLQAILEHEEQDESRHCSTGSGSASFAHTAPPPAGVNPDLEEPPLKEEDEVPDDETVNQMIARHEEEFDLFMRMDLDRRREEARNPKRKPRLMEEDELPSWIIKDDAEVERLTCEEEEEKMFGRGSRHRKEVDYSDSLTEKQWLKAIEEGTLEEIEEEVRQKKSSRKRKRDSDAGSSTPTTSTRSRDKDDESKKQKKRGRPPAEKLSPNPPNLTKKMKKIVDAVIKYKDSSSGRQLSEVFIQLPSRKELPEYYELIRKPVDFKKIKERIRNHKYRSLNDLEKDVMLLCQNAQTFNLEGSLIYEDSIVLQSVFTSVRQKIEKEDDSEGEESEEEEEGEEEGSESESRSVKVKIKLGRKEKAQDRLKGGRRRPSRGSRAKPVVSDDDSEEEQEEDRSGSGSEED
Assay: Cellular degradation assay, SMARCA4 (Table 1)
Type: cell-based
EXPERIMENTAL_ENDPOINT: DC50 (nM)

Recorded DC50, per entry:
[
  {
    "COMPOUND": "O=C1CCC(c2ccc(N3CCC(CCN4CC5(CCCN(C(=O)C6(c7ccccc7)CCN(c7cnnc(-c8ccccc8O)c7)CC6)C5)C4)CC3)cc2)C(=O)N1 (racemic) [Example 167]",
    "DC50 [nM]": 659
  },
  {
    "COMPOUND": "O=C1CC[C@H](n2ccc3cc(N4CCC(CN5CCC(NC(=O)C6(c7ccccc7)CCN(c7cnnc(-c8ccccc8O)c7)CC6)CC5)CC4)ccc3c2=O)C(=O)N1 [Example 157]",
    "DC50 [nM]": 8.12
  }
]

I. Cn1c(=O)n(C2CCC(=O)NC2=O)c2ccc(N3CCC(CN4CCC5(CC4)CN(C(=O)C4(c6ccccc6)CCN(c6cnnc(-c7ccccc7O)c6)CC4)C5)CC3)cc21 (racemic) [Example 159]
II. Cn1ccc(OC2(C(=O)N3CC4(CN(CCC5CCN(c6cccc7c6n(C)c(=O)n7C6CCC(=O)NC6=O)CC5)C4)C3)CCN(c3cnnc(-c4ccccc4O)c3)CC2)n1 (racemic) [Example 67]
stdin: Form: Entry with minimum DC50 (choose one): I / II Could you answer with the label of the item you picked?
stdout: I

###

Target: SMARCA2 (Homo sapiens, UniProt P51531)
Construct: endogenous in cells
Experiment: SMARCA2 Cellular Degradation Assay (Western blot analysis on Jess platform)
Assay type: cell-based
Conditions: cellular degradation
EXPERIMENTAL_ENDPOINT: DC50 (nM)

[
  {
    "MOLECULE": "O=C1CCC(c2ccc(N3CCC(CCN4CC5(CCCN(C(=O)C6(c7ccccc7)CCN(c7cnnc(-c8ccccc8O)c7)CC6)C5)C4)CC3)cc2)C(=O)N1 (racemic)",
    "UNIT_OF_MEASURE": "nM",
    "DC50": 40.1
  }
]

I. O=C1CC[C@H](c2ccc(N3CCC(CCN4CCC(N(C(=O)C5(c6ccccc6)CCN(c6cnnc(-c7ccccc7O)c6)CC5)C5CC5)CC4)CC3)cc2)C(=O)N1
II. O=C1CCC(c2ccc(N3CCC(CCN4CC5(C4)CN(C(=O)C4(c6ccccc6F)CCN(c6cnnc(-c7ccccc7O)c6)CC4)C5)CC3)cc2)C(=O)N1 (racemic)
stdin: Which of the two gives a bigger number for DC50: I or II ? Could you answer with the label of the item you picked?
stdout: II

###

Molecular target: SMARCA2 (Homo sapiens)
Construct: endogenous in cells
Assay: SMARCA2 Cellular Degradation Assay (Western blot analysis on Jess platform)
Assay type: cell-based
Details: cellular degradation
EXPERIMENTAL_ENDPOINT: DC50 (nM)

1. N#CC1(CN2CCN(c3ccc([C@@H]4CCC(=O)NC4=O)cc3)CC2)CC12CCN(C(=O)C1(c3ccccc3)CCN(c3cnnc(-c4ccccc4O)c3)CC1)CC2 (mixture of isomers) [Example 171]
2. CN(C(=O)C1(c2ccncc2)CCN(c2cnnc(-c3ccccc3O)c2)CC1)C1CCN(CCC2CCN(c3ccc([C@H]4CCC(=O)NC4=O)cc3)CC2)CC1 [Example 140]
3. CN(C(=O)C1(Oc2ccccc2)CCN(c2cnnc(-c3ccccc3O)c2)CC1)C1CCN(CC2CCN(c3ccc([C@H]4CCC(=O)NC4=O)cc3)CC2)C2(CC2)C1 (mixture of isomers) [Example 168]
4. O=C1CCC(c2ccc(N3CCC(CN4CC5(C4)CN(C(=O)C4(c6cccnc6)CCN(c6cnnc(-c7ccccc7O)c6)CC4)C5)CC3)cc2)C(=O)N1 (racemic) [Example 34]
5. COC1(C(=O)N(C)C2CCN(CCC3CCN(c4ccc(C5CCC(=O)NC5=O)c(F)c4)CC3)CC2)CCN(c2cnnc(-c3ccccc3O)c2)CC1 (racemic) [Example 71]
stdin: # sort list by recorded DC50, greatest to least I would appreciate it if you listed the labels in the requested order.
stdout: 4, 1, 3, 5, 2

1. O=C1CC[C@H](NC(=O)c2ccc(N3CCC(CN4CCC(NC(=O)C5(c6ccccc6)CCN(c6cnnc(-c7ccccc7O)c6)CC5)CC4)CC3)nc2)C(=O)N1 [Example 156]
2. O=C1CC[C@@H](c2ccc(N3CCC(CN4CCC(NCC5(c6ccccc6)CCN(c6cnnc(-c7ccccc7O)c6)CC5)CC4)CC3)cc2)C(=O)N1 [Example 135]
stdin: Form: Entry with minimum DC50 (choose one): 1 / 2 Could you answer with the label of the item you picked?
stdout: 2
(2: 20.7 nM, 1: 38.5 nM)

A. O=C1CCC(c2ccc(N3C[C@@H]4CN(CC5CCN(C(=O)C6(c7ccccc7)CCN(c7cnnc(-c8ccccc8O)c7)CC6)CC5)C[C@H]4C3)cc2)C(=O)N1 (mixture of isomers) [Example 160]
B. O=C1CCC(c2ccc(OCC3CCN(CC4CCN(C(=O)C5(c6ccccc6)CCN(c6cnnc(-c7ccccc7O)c6)CC5)CC4)CC3)cc2)C(=O)N1 (racemic) [Example 11]
C. CC1(C(=O)N2CC3(CN(CC4CCN(c5ccc([C@H]6CCC(=O)NC6=O)cc5)CC4)C3)C2)CCN(c2cnnc(-c3ccccc3O)c2)CC1 [Example 23]
D. COCCN(CC1(c2ccccc2)CCN(c2cnnc(-c3ccccc3O)c2)CC1)C(=O)C1CCN(CCC2CCN(c3ccc([C@@H]4CCC(=O)NC4=O)cc3)CC2)CC1 (racemic) [Example 145]
stdin: # desc sort on DC50 across 4 molecules I would appreciate it if you listed the labels in the requested order.
stdout: C, B, A, D

A. O=C1CCC(c2ccc(N3CCC(CCN4CC5(C4)CN(C(=O)C4(OC6CCCCC6)CCN(c6cnnc(-c7ccccc7O)c6)CC4)C5)CC3)cc2)C(=O)N1 (racemic) [Example 121]
B. O=C1CCC(c2ccc(N3C[C@H]4CN(CC(=O)N5CCC6(CC5)CN(C(=O)C5(c7ccccc7)CCN(c7cnnc(-c8ccccc8O)c7)CC5)C6)C[C@@H]4C3)cc2)C(=O)N1 (mixture of isomers) [Example 150]
stdin: Which of the two gives a bigger number for DC50: A or B ? Could you answer with the label of the item you picked?
stdout: B
